Measured pIC50 values are reported for all entries that follow.
- experimental-target: protein kinase C (mixed isozymes from rat brain)
- method: Protein kinase C assay (Histone H1, TCA precipitation)
- measurement-setup: Table 5; read-out: PKC IC50
pIC50: −log10 of the molar value.

CC(C)c1nn(-c2c(Cl)cccc2Cl)c2nc(Cc3ccc(O)c(CN4CCN(C(C)C)CC4)c3)[nH]c(=O)c12 :: < 5.00

Continue with the next molecule.
# "CC(C)N1CCN(CCOc2ccc(-c3[nH]nc4c3C(=O)c3c(NC(=O)NN5CCOCC5)cccc3-4)cc2)CC1" with protein kinase C (mixed isozymes from rat brain): pIC50 is > 5.00

###

- experimental-target: Cdc2/cyclin B (Homo sapiens, UniProt P06493)
- Sequence (P06493 whole entry, species assumed): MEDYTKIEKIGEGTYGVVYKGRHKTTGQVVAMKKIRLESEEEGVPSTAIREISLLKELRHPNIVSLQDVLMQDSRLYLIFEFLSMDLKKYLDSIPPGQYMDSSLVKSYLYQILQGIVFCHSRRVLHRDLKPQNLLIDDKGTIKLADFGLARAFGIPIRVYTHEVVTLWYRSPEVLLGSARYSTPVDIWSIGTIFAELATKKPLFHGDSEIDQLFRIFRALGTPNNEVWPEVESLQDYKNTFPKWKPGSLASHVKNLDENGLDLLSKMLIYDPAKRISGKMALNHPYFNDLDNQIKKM
- Sequence (P14635 whole entry partner, species assumed): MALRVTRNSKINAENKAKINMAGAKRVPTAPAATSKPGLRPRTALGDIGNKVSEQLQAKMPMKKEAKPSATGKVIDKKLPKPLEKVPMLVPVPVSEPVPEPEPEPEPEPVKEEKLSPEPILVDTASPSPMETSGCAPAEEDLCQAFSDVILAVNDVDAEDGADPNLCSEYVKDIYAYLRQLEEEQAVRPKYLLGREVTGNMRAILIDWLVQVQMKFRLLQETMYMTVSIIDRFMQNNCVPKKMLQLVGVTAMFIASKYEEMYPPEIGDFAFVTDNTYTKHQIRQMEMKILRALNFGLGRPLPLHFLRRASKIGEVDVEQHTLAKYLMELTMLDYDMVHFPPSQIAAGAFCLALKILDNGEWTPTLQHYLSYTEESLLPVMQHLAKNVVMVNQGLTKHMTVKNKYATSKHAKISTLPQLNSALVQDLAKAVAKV
- method: Cdc2/cyclin B kinase assay (Histone H1, TCA precipitation)
- measurement-setup: Table 6
pIC50: −log10 of the molar value.
endpoint: pIC50

# CC(C)c1nn(-c2c(Cl)cccc2Cl)c2nc(Cc3ccc(OCCOC(=O)[C@@H](N)C(C)C)cc3)[nH]c(=O)c12 [Compound A60] with Cdc2/cyclin B (Homo sapiens, UniProt P06493): pIC50 is > 6.00

###

- experimental-target: Cdk4/cyclin D1 (Homo sapiens)
- Sequence (P11802 whole entry, species assumed): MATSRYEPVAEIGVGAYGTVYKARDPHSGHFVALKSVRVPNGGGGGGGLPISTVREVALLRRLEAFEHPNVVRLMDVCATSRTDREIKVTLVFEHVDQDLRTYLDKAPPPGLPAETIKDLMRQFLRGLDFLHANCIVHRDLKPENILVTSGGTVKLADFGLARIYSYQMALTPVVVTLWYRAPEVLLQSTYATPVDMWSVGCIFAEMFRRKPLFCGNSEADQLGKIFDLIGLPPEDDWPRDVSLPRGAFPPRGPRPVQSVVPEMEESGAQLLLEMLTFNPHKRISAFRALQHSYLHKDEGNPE
- Sequence (P24385 whole entry partner, species assumed): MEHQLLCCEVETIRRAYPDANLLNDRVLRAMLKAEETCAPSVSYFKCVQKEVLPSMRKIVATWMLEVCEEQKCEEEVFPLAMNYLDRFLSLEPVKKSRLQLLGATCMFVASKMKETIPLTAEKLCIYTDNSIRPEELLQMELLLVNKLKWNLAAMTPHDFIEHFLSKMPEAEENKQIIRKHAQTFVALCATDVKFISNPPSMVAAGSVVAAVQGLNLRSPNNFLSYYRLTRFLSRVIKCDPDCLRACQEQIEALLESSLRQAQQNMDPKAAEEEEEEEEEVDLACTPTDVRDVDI
- method: Cdk4/cyclin D1 kinase assay (GST-Rb, glutathione-sepharose capture)
- measurement-setup: Table 6
endpoint: IC50

# "CC(C)c1nn(-c2c(Cl)cccc2Cl)c2nc(Cc3ccc(OCCOC(=O)[C@@H](N)C(C)C)cc3)[nH]c(=O)c12" with Cdk4/cyclin D1 (Homo sapiens): IC50 is < 10 µM
